# Study System: human neutrophil elastase (Homo sapiens, UniProt P08246)
# Assay Text: In vitro assay of human neutrophil elastase (HNE)
# Format: biochemical
# Assay Context: 118 nM purified human neutrophil elastase, pH 8.6, 15 min incubation at 30° C., MeO-succinyl-alanyl-alanyl-prolyl-valyl-p-nitroanilide substrate; read-out: HNE IC50
Parameter: IC50 (nM)
Report the figure in nM without appending any unit label.

C=CC[C@H]1C(=O)N(S(=O)(=O)c2cccc3ccccc23)[C@H]2CCN(C(=O)OCc3ccccc3)[C@H]12 (relative stereo) [Example 15]
10
CCC[C@H]1C(=O)N(S(C)(=O)=O)[C@H]2CCN(S(=O)(=O)c3cc(C(F)(F)F)cc(C(F)(F)F)c3)[C@H]12 (relative stereo) [Example 224]
410
CCC[C@H]1C(=O)N(S(C)(=O)=O)[C@H]2CCN(S(=O)(=O)c3ccc(N4CCCC4=O)cc3)[C@H]12 (relative stereo) [Example 212]
30
CC(C)[C@H]1C(=O)N(S(C)(=O)=O)[C@H]2CCN(C(=O)/C=C/CN3C(C)CCCC3C)[C@H]12.Cl (relative stereo) [Example 139, hydrochloride]
55

Look up IC50: CCC[C@H]1C(=O)N(S(=O)(=O)c2cccc3ccccc23)[C@H]2CCN(S(=O)(=O)CCCN3CCOCC3)[C@H]12 (relative stereo) [Example 36]
125

Look up IC50: CCC[C@H]1C(=O)N(S(C)(=O)=O)[C@H]2CCN(S(=O)(=O)c3ccc(C(=O)N4CCCCC4)cc3)[C@H]12 (relative stereo) [Example 119]
34

---

# Study System: human neutrophil elastase (Homo sapiens, UniProt P08246)
# Assay Text: In vitro assay of human neutrophil elastase (HNE)
# Format: biochemical
# Assay Context: 118 nM purified human neutrophil elastase, pH 8.6, 15 min incubation at 30° C., MeO-succinyl-alanyl-alanyl-prolyl-valyl-p-nitroanilide substrate; read-out: HNE IC50
# Procedure: In Vitro Assays of Human Neutrophil Elastase 118 nM purified human neutrophil elastase Suitable concentrations of compound under test diluted with water from a 10 mM stock solution in dimethylsulphoxide. […] The mixture above is incubated for fifteen minutes at 30° C. at which time the remaining elastase activity is measured for 10 minutes in a BioTek 340i plate-reader, after the addition of 0.6 mM MeO-succinyl-alanyl-alanyl-prolyl-valyl-p-nitroanilide. […]
Counter-ions that a name gives are not always drawn.
Form field: IC50 (one value per entry).
Report the figure in nM without appending any unit label.

Completed entries (count: 5):
CCC[C@H]1C(=O)N(S(=O)(=O)CCC)[C@H]2CCN(C(=O)CCN3CCCCC3)[C@H]12 (relative stereo)
62
CCC[C@H]1C(=O)N(S(C)(=O)=O)[C@H]2CCN(C(=O)CNC)[C@H]12 (relative stereo) [Example 110, trifluoroacetate]
136
CCC[C@H]1C(=O)N(S(C)(=O)=O)[C@H]2CCN(S(=O)(=O)c3cn(C)cn3)[C@H]12 (relative stereo)
134
CCC[C@H]1C(=O)N(S(=O)(=O)c2cccnc2)[C@H]2CCN(C(=O)CCN3CCCCC3)[C@H]12 (relative stereo) [Example 172, dihydrochloride]
69
CC(C)[C@H]1C(=O)N(S(C)(=O)=O)[C@H]2CCN(C(=O)c3cccc(CN4CCN(C)CC4)c3)[C@H]12.Cl.Cl (relative stereo) [Example 189, dihydrochloride]
62

We now examine a further compound.
Look up IC50: CCC[C@H]1C(=O)N(S(C)(=O)=O)[C@H]2CCN(C(=O)CCN3C(C)CCCC3C)[C@H]12 (relative stereo) [Example 92, hydrochloride]
70

---

# Study System: human neutrophil elastase (Homo sapiens, UniProt P08246)
# Sequence (P08246 30-267): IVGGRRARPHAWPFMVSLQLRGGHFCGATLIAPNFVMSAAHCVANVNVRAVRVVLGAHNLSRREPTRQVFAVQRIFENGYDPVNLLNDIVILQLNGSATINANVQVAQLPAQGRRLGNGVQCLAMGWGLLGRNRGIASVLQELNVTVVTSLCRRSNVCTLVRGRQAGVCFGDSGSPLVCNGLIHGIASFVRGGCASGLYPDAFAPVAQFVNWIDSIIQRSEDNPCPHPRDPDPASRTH
# Assay Text: In vitro assay of human neutrophil elastase (HNE)
# Type: biochemical
# Assay Context: 118 nM purified human neutrophil elastase, pH 8.6, 15 min incubation at 30° C., MeO-succinyl-alanyl-alanyl-prolyl-valyl-p-nitroanilide substrate; read-out: HNE IC50
Where a name gives a salt, the structure may show the parent alone.
Form field: pIC50 (one value per entry).
// returns pIC50 (minus log10 of molar concentration), number only

Completed entries (count: 2):
CCC[C@H]1C(=O)N(S(=O)(=O)c2ccc(Cl)cc2)[C@H]2CCN(C(=O)CCCCCN3CCCCC3)[C@H]12 (relative stereo) [Example 207]
7.42
CC(C)[C@H]1C(=O)N(S(C)(=O)=O)[C@H]2CCN(C(=O)c3ccc(CN4CCNCC4)cc3)[C@H]12.Cl.Cl (relative stereo) [Example 188, dihydrochloride]
7.17

We now examine a further compound.
Can you look up pIC50 on human neutrophil elastase (Homo sapiens, UniProt P08246) for CC(C)[C@H]1C(=O)N(S(C)(=O)=O)[C@H]2CCN(C(=O)c3cccc(CN4CCCCC4)c3)[C@H]12 (relative stereo) [Example 192, hydrochloride] ?
7.21
